Assay: AUC (total) in Famotidine-pretreated Sprague-Dawley rat at 10 mg/kg, po measured for 24 hrs by UPLC-MS/MS analysis
Type: ADME, organism-based
Conditions: in vivo
MEASUREMENT_TYPE: AUC at 24 h (µM·h)
A number alone suffices; assume µM·h.

[[record]]
smiles_record = "Cl.[2H]C([2H])([2H])NC(=O)c1cnc(NC(=O)C2CC2)cc1Nc1cccc(-c2nnn(C)n2)c1OC"
endpoint_value = 5.5


Alright, here's another compound for you.
Recorded AUC at 24 h for "[2H]C([2H])([2H])NC(=O)c1cnc(NC(=O)C2CC2)cc1Nc1cccc(-c2nnn(C)n2)c1OC" , please?
7.8
